# procedure.summary: chemical genetic growth profiling, strain panel (AID 1159580);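 also: tested at 20 µM; growth read once vehicle control cultures reached saturation at 30 °C; 1 = growth at the plate median or of vehicle wells; lower values mean less growth of the strain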
# assay.conditions: S. cerevisiae deletion strains, growth OD, locus YOL006C, strain TOP1, stronger effect = lower value
Out of some 5,500 compounds screened, about 2,000 (36%) were called active. Roughly 18% stayed inconclusive and do not appear here. The list shows a part of the results.
experimental.endpoint: normalized growth
Format: numeric value only, no unit, no commentary.

Req: If you can, please state the reported normalized growth value of `COc1ccc2c(=O)ccoc2c1` .
Resp: 0.962

Req: Then this compound: `COc1cc(-c2oc3cc(O)ccc3c(=O)c2O)cc(OC)c1OC`
Resp: 0.999

Req: Then this compound: `CCC1(CC)C(=O)C=CNC1=O`
Resp: 0.966

Req: Then this compound: `CC(=O)c1cc2ccccc2oc1=O`
Resp: 1.02

Req: Then this compound: CC(NCCC(c1ccccc1)c1ccccc1)c1ccccc1 (configuration not stated)
Resp: 0.468

Req: Then this compound: `CC(C)(C)C1=NN(c2ccccc2)C(=O)C1`
Resp: 0.808

Req: Then this compound: `CC(=O)Nc1cc2ccccc2oc1=O`
Resp: 0.958

---

# procedure.summary: chemical genetic growth profiling, strain panel (AID 1159580);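 also: tested at 20 µM; growth read once vehicle control cultures reached saturation at 30 °C; 1 = growth at the plate median or of vehicle wells; lower values mean less growth of the strain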
# assay.conditions: S. cerevisiae deletion strains, growth OD, locus YLR268W, strain sec22
Hit rate of the full screen: of about 5,500 compounds, about 2,000 (36%) were called active. Another 18% or so got no clear call; they are omitted. Cut-off read from the data, not from the text of the source: active = normalized growth mostly below about 0.91 (no sharp cut-off); inconclusive = no clear call, values can overlap the other calls; inactive = mostly above about 0.92. This is one part of the list.
Hello, when you answer, please use one of the following outcomes: active, inactive

Req: Check the results log: what was the call for CC(=O)OCC1=C(C(=O)O)N2C(=O)[C@@H](NC(=O)CCCC(N)C(=O)O)C2SC1 (stereo partly specified) ?
Resp: inactive

Req: Then this compound: NC1C[C@H]1c1ccccc1 (stereo partly specified)
Resp: inactive

Req: Then this compound: COc1cc2c(cc1OC)[C@@]13CCN4CC5=CCOC6CC(=O)N2C1[C@H]6[C@H]5C[C@H]43 (stereo partly specified)
Resp: inactive

Req: Then this compound: `CCOC([O-])=Nc1c[n+](N2CCOCC2)no1`
Resp: inactive

Req: Then this compound: `CC(=O)Oc1cccc2c1C(=O)c1c(OC(C)=O)cc(C(=O)O)cc1C2=O`
Resp: active

Req: Then this compound: `COc1ccc(C2C(=O)c3ccccc3C2=O)cc1`
Resp: inactive

Req: Then this compound: `OCCN1CCN(CCCN2c3ccccc3Sc3ccc(C(F)(F)F)cc32)CC1`
Resp: inactive

Req: Then this compound: `CO[C@@]1(NC(=O)Cc2cccs2)C(=O)N2C(C(=O)O)=C(COC(N)=O)CS[C@@H]21`
Resp: inactive

Req: Then this compound: `CN1CCN(CCCN2c3ccccc3Sc3ccc(C(F)(F)F)cc32)CC1`
Resp: active

Req: Then this compound: `CC(=O)Oc1cccc(C(=O)O)c1OC(C)=O`
Resp: inactive

Req: Then this compound: CC(=O)[C@@]1(O)CCC2C3CCC4=CC(=O)CC[C@]4(C)C3CC[C@@]21C (stereo partly specified)
Resp: inactive

---

# procedure.summary: chemical genetic growth profiling, strain panel (AID 1159580);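 also: tested at 20 µM; growth read once vehicle control cultures reached saturation at 30 °C; 1 = growth at the plate median or of vehicle wells; lower values mean less growth of the strain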
# assay.conditions: S. cerevisiae deletion strains, growth OD, locus YAL026C, strain drs2
About 2,000 (36%) of roughly 5,500 compounds were called active. Another 18% or so got no clear call; they are omitted. Rule as the data show it: active = normalized growth mostly below about 0.91 (no sharp cut-off); inconclusive = no clear call, values can overlap the other calls; inactive = mostly above about 0.92. The list shows a part of the results.
Hello, when you answer, please use one of the following outcomes: 1.0 for active, 0.0 for inactive

Req: Check the results log: what was the call for CCc1cccc2c3c([nH]c12)C(CC)(CC(=O)O)OCC3 (stereo unspecified) ?
Resp: 0.0

Req: Then this compound: CC(NCCC(c1ccccc1)c1ccccc1)c1ccccc1 (stereo unspecified)
Resp: 1.0

Req: Then this compound: OC(c1cc(C(F)(F)F)nc2c(C(F)(F)F)cccc12)C1CCCCN1 (stereo unspecified)
Resp: 0.0

Req: Then this compound: `CC(=O)OC[C@H]1O[C@@H](Oc2cc(OC(C)=O)c3c(=O)cc(-c4ccc(OC(C)=O)cc4)oc3c2)[C@H](OC(C)=O)[C@@H](OC(C)=O)[C@@H]1OC(C)=O`
Resp: 0.0

Req: Then this compound: `NCCc1c[nH]c2ccccc12`
Resp: 0.0

Req: Then this compound: `O=C1c2ccccc2C(=O)C1c1ccccc1`
Resp: 0.0

Req: Then this compound: `c1ccc2c(Cc3c[nH]c4ccccc34)c[nH]c2c1`
Resp: 1.0

Req: Then this compound: `COc1ccc(C2C(=O)c3ccccc3C2=O)cc1`
Resp: 0.0

Req: Then this compound: `NCCc1cc(O)c(O)cc1O`
Resp: 0.0

Req: Then this compound: `OCc1c[nH]c2ccccc12`
Resp: 0.0

Req: Then this compound: `CC(=O)Oc1cccc2c1C(=O)c1c(OC(C)=O)cc(C(=O)O)cc1C2=O`
Resp: 1.0
